System: Escherichia coli (NCIM 2574)
Test: agar disc diffusion, zone of inhibition
Format: cell-based
Details: Escherichia coli, NCIM2574; E. coli; discs 6 mm, test compounds 100 µg/mL in DMSO, standards 10 µg/disc; 37°C 24 h; average of three replicates; read-out: zone of inhibition
Procedure: The in vitro antimicrobial screening effects of the compounds (3 and 5a–j) were individually tested against a panel of bacteria and fungi including Staphylococcus aureus (NCIM 5021), Bacillus subtilis (NCIM 2999), Pseudomonas aeruginosa (NCIM 5029), Escherichia coli (NCIM 2574), Candida. albicans (NCIM 3471), and Aspergillus flavus (NCIM 524). […] The antibacterial activity of compounds was determined by agar disc diffusion method. […]
Measurement kind: zone of inhibition at 100 µg/mL (mm)
Report the figure in mm without appending any unit label.

Field zone of inhibition at 100 µg/mL (entry CC(=O)N(C(=O)Cc1ccccc1)c1ccc(N=Cc2cc3ccccc3o2)cc1 ) reads 10

Field zone of inhibition at 100 µg/mL (entry CC(=O)Nc1ccc(N=Cc2cc3ccccc3o2)cc1 ) reads 11

Field zone of inhibition at 100 µg/mL (entry CC(=O)N(C(=O)c1ccc([N+](=O)[O-])cc1)c1ccc(N=Cc2cc3ccccc3o2)cc1 ) reads 9

Field zone of inhibition at 100 µg/mL (entry CC(=O)N(C(=O)c1ccccc1C)c1ccc(N=Cc2cc3ccccc3o2)cc1 ) reads 11

Field zone of inhibition at 100 µg/mL (entry [H]/N=C(/N)N[C@H]1[C@H](O)[C@@H](O)[C@H](O[C@@H]2O[C@@H](C)[C@](O)(C=O)[C@H]2O[C@@H]2O[C@@H](CO)[C@H](O)[C@@H](O)[C@@H]2NC)[C@@H](N/C(N)=N\[H])[C@@H]1O [Streptomycin, streptomycin, reference compound] ) reads 16.5

----------
Field: zone of inhibition at 100 µg/mL. Provide a value for each of the compounds that follow.
system: Staphylococcus aureus (NCIM 5021); test: agar disc diffusion, zone of inhibition; assay type: cell-based; conditions: Staphylococcus aureus, NCIM5021, 24 h

Field zone of inhibition at 100 µg/mL (entry COc1ccc(C(=O)N(C(C)=O)c2ccc(N=Cc3cc4ccccc4o3)cc2)cc1 ) reads 14 mm

Field zone of inhibition at 100 µg/mL (entry CC(=O)N(C(=O)c1cc(F)ccc1F)c1ccc(N=Cc2cc3ccccc3o2)cc1 ) reads 11 mm

Field zone of inhibition at 100 µg/mL (entry CC(=O)N(C(=O)c1cc(F)c(F)c(F)c1)c1ccc(N=Cc2cc3ccccc3o2)cc1 ) reads 13.6 mm

Field zone of inhibition at 100 µg/mL (entry CC(=O)N(C(=O)c1cc(F)cc(F)c1)c1ccc(N=Cc2cc3ccccc3o2)cc1 ) reads 14 mm

Field zone of inhibition at 100 µg/mL (entry CC(=O)N(C(=O)c1ccc(O)cc1)c1ccc(N=Cc2cc3ccccc3o2)cc1 ) reads 12 mm

Field zone of inhibition at 100 µg/mL (entry CC(=O)N(C(=O)c1ccccc1)c1ccc(N=Cc2cc3ccccc3o2)cc1 ) reads 11 mm

----------
test system: Staphylococcus aureus (NCIM 5021); test: minimum inhibitory concentration by dilution method; format: cell-based; settings: Staphylococcus aureus, NCIM5021
Field: MIC. Provide a value for each of the compounds that follow.
Report the figure in mg/L without appending any unit label.

Field MIC (entry CC(=O)N(C(=O)c1cc(F)cc(F)c1)c1ccc(N=Cc2cc3ccccc3o2)cc1 [Compound 5h] ) reads 12.4

Field MIC (entry CC(=O)N(C(=O)c1cc(F)ccc1F)c1ccc(N=Cc2cc3ccccc3o2)cc1 [Compound 5a] ) reads 12

Field MIC (entry CC(=O)N(C(=O)c1cc(F)c(F)c(F)c1)c1ccc(N=Cc2cc3ccccc3o2)cc1 [Compound 5g] ) reads 9.8

Field MIC (entry CC(=O)N(C(=O)c1ccccc1)c1ccc(N=Cc2cc3ccccc3o2)cc1 [Compound 5c] ) reads 35

Field MIC (entry CC(=O)N(C(=O)c1ccc(O)cc1)c1ccc(N=Cc2cc3ccccc3o2)cc1 [Compound 5j] ) reads 35

Field MIC (entry COc1ccc(C(=O)N(C(C)=O)c2ccc(N=Cc3cc4ccccc4o3)cc2)cc1 [Compound 5i] ) reads 40

----------
target: bovine serum albumin (BSA) (Bos taurus, UniProt P02769); construct: Bovine serum albumin (BSA), one of the major components in plasma protein; purchased Sigma Aldrich Bangalore; assay: energy transfer from BSA to compound (Forster theory); format: binding; settings: K^2 = 2/3, N = 1.311, Φ = 0.118
Sequence (P02769 25-607): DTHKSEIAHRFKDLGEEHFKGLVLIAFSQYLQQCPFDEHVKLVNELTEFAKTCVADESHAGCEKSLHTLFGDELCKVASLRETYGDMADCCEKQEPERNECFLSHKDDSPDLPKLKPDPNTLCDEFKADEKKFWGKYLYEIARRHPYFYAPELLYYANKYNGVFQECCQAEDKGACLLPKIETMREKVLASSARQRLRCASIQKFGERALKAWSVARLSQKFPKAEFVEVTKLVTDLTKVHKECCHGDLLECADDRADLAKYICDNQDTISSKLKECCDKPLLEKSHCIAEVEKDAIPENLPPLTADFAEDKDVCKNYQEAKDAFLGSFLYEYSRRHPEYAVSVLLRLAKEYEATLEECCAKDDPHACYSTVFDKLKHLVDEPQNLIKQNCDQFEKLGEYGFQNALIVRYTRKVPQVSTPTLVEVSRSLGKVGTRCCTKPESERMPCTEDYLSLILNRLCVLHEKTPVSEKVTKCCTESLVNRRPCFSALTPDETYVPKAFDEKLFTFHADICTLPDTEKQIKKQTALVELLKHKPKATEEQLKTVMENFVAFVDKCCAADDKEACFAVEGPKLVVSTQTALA
Measurement kind: R 0 (critical energy transfer distance) (nm)
Report the figure in nm without appending any unit label.

Field R 0 (critical energy transfer distance) (entry CC(=O)N(C(=O)c1ccccc1)c1ccc(N=Cc2cc3ccccc3o2)cc1 [Compound 5c] ) reads 3.04

Field R 0 (critical energy transfer distance) (entry CC(=O)N(C(=O)c1ccc(O)cc1)c1ccc(N=Cc2cc3ccccc3o2)cc1 [Compound 5j] ) reads 3.02

Field R 0 (critical energy transfer distance) (entry COc1ccc(C(=O)N(C(C)=O)c2ccc(N=Cc3cc4ccccc4o3)cc2)cc1 [Compound 5i] ) reads 2.83

Field R 0 (critical energy transfer distance) (entry CC(=O)N(C(=O)c1cc(F)ccc1F)c1ccc(N=Cc2cc3ccccc3o2)cc1 [Compound 5a] ) reads 2.51

Field R 0 (critical energy transfer distance) (entry CC(=O)N(C(=O)c1cc(F)cc(F)c1)c1ccc(N=Cc2cc3ccccc3o2)cc1 [Compound 5h] ) reads 2.16

Field R 0 (critical energy transfer distance) (entry CC(=O)N(C(=O)c1cc(F)c(F)c(F)c1)c1ccc(N=Cc2cc3ccccc3o2)cc1 [Compound 5g] ) reads 2.86

----------
test system: Pseudomonas aeruginosa (NCIM 5029); test: agar disc diffusion, zone of inhibition; assay type: cell-based; details: Pseudomonas aeruginosa, NCIM5029, 24 h
Field: zone of inhibition at 100 µg/mL. Provide a value for each of the compounds that follow.
Report the figure in mm without appending any unit label.

Field zone of inhibition at 100 µg/mL (entry CC(=O)N(C(=O)c1ccccc1)c1ccc(N=Cc2cc3ccccc3o2)cc1 [Compound 5c] ) reads 12

Field zone of inhibition at 100 µg/mL (entry CC(=O)N(C(=O)c1cc(F)c(F)c(F)c1)c1ccc(N=Cc2cc3ccccc3o2)cc1 [Compound 5g] ) reads 14

Field zone of inhibition at 100 µg/mL (entry CC(=O)N(C(=O)c1cc(F)cc(F)c1)c1ccc(N=Cc2cc3ccccc3o2)cc1 [Compound 5h] ) reads 17

Field zone of inhibition at 100 µg/mL (entry CC(=O)N(C(=O)c1ccc(O)cc1)c1ccc(N=Cc2cc3ccccc3o2)cc1 [Compound 5j] ) reads 13

Field zone of inhibition at 100 µg/mL (entry CC(=O)N(C(=O)c1cc(F)ccc1F)c1ccc(N=Cc2cc3ccccc3o2)cc1 [Compound 5a] ) reads 14

Field zone of inhibition at 100 µg/mL (entry COc1ccc(C(=O)N(C(C)=O)c2ccc(N=Cc3cc4ccccc4o3)cc2)cc1 [Compound 5i] ) reads 13

----------
target: bovine serum albumin (BSA) (Bos taurus); construct: Bovine serum albumin (BSA), one of the major components in plasma protein; test: fluorescence quenching of BSA, binding parameters
Classify: Criterion met when Kd is strictly less than 6 µM; Criterion not met when Kd is not.

Quick check: Kd of CC(=O)N(C(=O)c1cc(F)cc(F)c1)c1ccc(N=Cc2cc3ccccc3o2)cc1 under 6 µM?
Criterion not met

Quick check: Kd of CC(=O)N(C(=O)c1cc(F)ccc1F)c1ccc(N=Cc2cc3ccccc3o2)cc1 under 6 µM?
Criterion met

Quick check: Kd of CC(=O)N(C(=O)c1ccc(O)cc1)c1ccc(N=Cc2cc3ccccc3o2)cc1 under 6 µM?
Criterion not met

Quick check: Kd of CC(=O)N(C(=O)c1cc(F)c(F)c(F)c1)c1ccc(N=Cc2cc3ccccc3o2)cc1 under 6 µM?
Criterion not met

Quick check: Kd of CC(=O)N(C(=O)c1ccccc1)c1ccc(N=Cc2cc3ccccc3o2)cc1 under 6 µM?
Criterion not met

Quick check: Kd of COc1ccc(C(=O)N(C(C)=O)c2ccc(N=Cc3cc4ccccc4o3)cc2)cc1 under 6 µM?
Criterion met

----------
target: bovine serum albumin (BSA) (Bos taurus); construct: Bovine serum albumin (BSA), one of the major components in plasma protein; purchased Sigma Aldrich Bangalore; assay: fluorescence quenching of BSA, binding parameters; conditions: excitation 280 nm, emission around 340 nm, 298 K
Measurement kind: shift of BSA fluorescence emission maximum wavelength

1. CC(=O)N(C(=O)c1cc(F)c(F)c(F)c1)c1ccc(N=Cc2cc3ccccc3o2)cc1 ... slight blue shift
2. CC(=O)N(C(=O)c1ccccc1)c1ccc(N=Cc2cc3ccccc3o2)cc1 ... red shift
3. CC(=O)N(C(=O)c1cc(F)ccc1F)c1ccc(N=Cc2cc3ccccc3o2)cc1 ... slight blue shift
4. CC(=O)N(C(=O)c1ccc(O)cc1)c1ccc(N=Cc2cc3ccccc3o2)cc1 ... red shift
5. CC(=O)N(C(=O)c1cc(F)cc(F)c1)c1ccc(N=Cc2cc3ccccc3o2)cc1 ... red shift

Next up:
Item COc1ccc(C(=O)N(C(C)=O)c2ccc(N=Cc3cc4ccccc4o3)cc2)cc1 ; assay system bovine serum albumin (BSA) (Bos taurus); shift of BSA fluorescence emission maximum wavelength reported as slight blue shift
